- measured.target: T1, Anti-PSMA Fab
- T1 construct: Biotinylated and captured on neutravidin coated plates in the phage ELISA; also called 006 PSMA Fab
- protocol.text: phage binding ELISA; clonal phage supernatant on biotinylated anti-PSMA Fab captured on neutravidin plate; anti-M13-HRP detection
property.measured: Phage binding ELISA signal, Anti-PSMA Fab
Just the number, please, no unit after it.

ETFTCKPPWMCIGF (Tested as clonal phage supernatant) [Phage-3576 (Peptide-180 library clone)] = 1.62
YEKLCEPRWMCDGF (Tested as clonal phage supernatant) [Phage-3577 (Peptide-180 library clone)] = 1.62
HEPVCRPEWMCQGF (Tested as clonal phage supernatant) [Phage-3587 (Peptide-180 library clone)] = 1.6
ESYTCVPMWMCTGF (Tested as clonal phage supernatant) [Phage-3582 (Peptide-180 library clone)] = 1.61
YDVVCKPAWMCNGF (Tested as clonal phage supernatant) [Phage-3578 (Peptide-180 library clone)] = 1.62
LGHWCSPTWMCMGF (Tested as clonal phage supernatant) [Phage-3581 (Peptide-180 library clone)] = 1.62
NLGWCVPVWMCEGF (Tested as clonal phage supernatant) [Phage-3586 (Peptide-180 library clone)] = 1.61

Could you now look at the following binder, please?
Record TTLMCTPQWMCDGF (Tested as clonal phage supernatant) [Phage-3589 (Peptide-180 library clone)] , field Phage binding ELISA signal, Anti-PSMA Fab: 1.6
